assay: self-splicing fitness, log relative to wild type (ln ratio); higher = more splicing; Tetrahymena group I intron in knt gene, E. coli kanamycin selection, DiMSum; sequences stand for … in CUCUCU…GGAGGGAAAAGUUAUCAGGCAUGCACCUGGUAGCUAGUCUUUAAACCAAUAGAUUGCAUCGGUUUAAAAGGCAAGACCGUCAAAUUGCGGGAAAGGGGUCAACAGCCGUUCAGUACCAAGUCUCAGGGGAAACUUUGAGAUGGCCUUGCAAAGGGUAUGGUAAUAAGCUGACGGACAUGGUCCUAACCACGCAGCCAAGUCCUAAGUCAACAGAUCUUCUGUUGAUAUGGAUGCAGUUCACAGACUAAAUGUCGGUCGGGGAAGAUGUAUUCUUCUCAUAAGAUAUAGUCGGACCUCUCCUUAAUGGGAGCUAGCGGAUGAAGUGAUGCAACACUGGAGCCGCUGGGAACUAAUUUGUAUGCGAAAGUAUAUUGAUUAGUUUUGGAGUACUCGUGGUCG; conditions: 37 °C;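 note: selection with 25 µg/mL kanamycin versus none on LB agar overnight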
observationType: self-splicing fitness (ln)
The answer should be a number; do not append a unit.

UAAGAGCAAUAUUACGGCGC | -2.01
AGCCAGCAAUAUUACGCAGC | -1.21
CGUUAGCAAUAUUACGUGAA | -1.45
GCAAAGCAAUAUUACGGGAG | -2.08
ACAUAGCAAUAUUACGAUGU | -2.19
GUCCAGCAAUAUUACGCGAU | -2.4
GUAGAGCAAUAUUACGUGUU | -2.04
UAUGAGCAAUAUUACGGGAC | -1.11
CAUGAGCAAUAUUACGCAGU | -2.63
AAGGAGCAAUAUUACGCCAG | -3.1

Field: next sequence
// lookup self-splicing fitness (ln) for UACUAGCAAUAUUACGCCCC -1.18

All figures here come from the supplement of paper PMC7877785.
